# System: SF539
# assay-info: HSA synergy score (Combenefit); higher = more synergy
# condition-details: exposure time: 72 h
observation-type: HSA synergy score
Format: numeric value only, no unit, no commentary.

Solved cases (2 shown):
>>> experimental_result("C[C@@H](Oc1cc(-c2cnn(C3CCNCC3)c2)cnc1N)c1c(Cl)ccc(F)c1Cl [Crizotinib] + CCOc1nc(NC(=O)Cc2cc(OC)ccc2OC)cc(N)c1C#N [JNK inhibitor VIII]")
13.6
>>> experimental_result("Nc1ccn([C@@H]2O[C@H](CO)[C@@H](O)C2(F)F)c(=O)n1 [Gemcitabine] + C[C@@H](Oc1cc(-c2cnn(C3CCNCC3)c2)cnc1N)c1c(Cl)ccc(F)c1Cl [Crizotinib]")
2.44

Recorded HSA synergy score of C#Cc1cccc(Nc2ncnc3cc(OCCOC)c(OCCOC)cc23)c1 [Erlotinib] + N#CC(c1ccnc(NCCc2cccnc2)n1)c1nc2ccccc2s1 [AS601245] , please.
2.83

Each recorded value in this set is attributed to the supplement of paper PMC7287046.
